measurementTarget: EGFR L858R S784F (Homo sapiens, UniProt P00533, L858R/S784F)
Construct: expressed in transfected cells; host or cells: Ba/F3 cells, retroviral pBabe-Puro vector (vector made by GeneScript from EGFR L858R)
experimentalProtocol: Ba/F3 drug screening, Cell Titer Glo, IC50 Mut/WT
Format: cell-based
testSettings: Classical-Like, 72 hours
readoutKind: ratio of IC50 for cells with mutant EGFR to IC50 for cells with wildtype EGFR (Mut/WT)

Reference set (3 entries):
COc1cc2ncnc(Nc3cccc(Cl)c3F)c2cc1OC(=O)N1CCN(C)C[C@H]1C 0.01546
C=CC(=O)Nc1cc(Nc2nccc(-c3c[nH]c4ccccc34)n2)c(OC)cc1N(C)CCN(C)C 0.0429
C=CC(=O)Nc1cc(Nc2ncc(C(=O)OC(C)C)c(-c3cn(C)c4ccccc34)n2)c(OC)cc1N(C)CCN(C)C 0.001484

1: C=CC(=O)N1CC[C@@H](Oc2nc(Nc3ccc(N4CCC(N5CCN(C)CC5)CC4)cc3)c(C(N)=O)nc2CC)C1
2: Cc1cc(C(=O)Nc2nc3cccc(Cl)c3n2[C@@H]2CCCCN(C(=O)/C=C/CN(C)C)C2)ccn1
**Q:** Which record shows the lower ratio of IC50 for cells with mutant EGFR to IC50 for cells with wildtype EGFR (Mut/WT): the first, 1 , or the second, 2 ? // return label of chosen record
**A:** 2
